Reference for the values: the supplement of paper PMC6757056

So I've got a bunch of variants here, and I need their FACS-Seq fitted mean (log10) values.
B1: library; a variant is named by its letters at N, in order (parent)
chain: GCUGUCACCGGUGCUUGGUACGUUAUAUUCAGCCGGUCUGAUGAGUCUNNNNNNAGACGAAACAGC

Variants of: B1
assay.method.text: FACS-Seq fitted mean relative fluorescence mCherry/BFP without ligand (log10 relative fluorescence); HEK293T overexpressing SLC46A1; higher = higher reporter protein expression
conditions.used: without (6R,S)-folinic acid; ligand present: no

Worked examples follow.
>  <input.sequence>
GCUGUCACCGGUGCUUGGUACGUUAUAUUCAGCCGGUCUGAUGAGUCUAGGGAGAGACGAAACAGC [AGGGAG]

>  <FACS-Seq fitted mean (log10)>
0.271

$$$$
>  <input.sequence>
GCUGUCACCGGUGCUUGGUACGUUAUAUUCAGCCGGUCUGAUGAGUCUUUAAGGAGACGAAACAGC [UUAAGG]

>  <FACS-Seq fitted mean (log10)>
0.0635

$$$$
>  <input.sequence>
GCUGUCACCGGUGCUUGGUACGUUAUAUUCAGCCGGUCUGAUGAGUCUUCAAUGAGACGAAACAGC [UCAAUG]

>  <FACS-Seq fitted mean (log10)>
0.183

$$$$
>  <input.sequence>
GCUGUCACCGGUGCUUGGUACGUUAUAUUCAGCCGGUCUGAUGAGUCUGCUCAAAGACGAAACAGC [GCUCAA]

>  <FACS-Seq fitted mean (log10)>
0.44

$$$$
>  <input.sequence>
GCUGUCACCGGUGCUUGGUACGUUAUAUUCAGCCGGUCUGAUGAGUCUGCUUCAAGACGAAACAGC [GCUUCA]

>  <FACS-Seq fitted mean (log10)>
0.399

$$$$
>  <input.sequence>
GCUGUCACCGGUGCUUGGUACGUUAUAUUCAGCCGGUCUGAUGAGUCUUACAUGAGACGAAACAGC [UACAUG]

>  <FACS-Seq fitted mean (log10)>
0.195

$$$$
>  <input.sequence>
GCUGUCACCGGUGCUUGGUACGUUAUAUUCAGCCGGUCUGAUGAGUCUGGCCAAAGACGAAACAGC [GGCCAA]

>  <FACS-Seq fitted mean (log10)>
0.479

$$$$
>  <input.sequence>
GCUGUCACCGGUGCUUGGUACGUUAUAUUCAGCCGGUCUGAUGAGUCUUAGACUAGACGAAACAGC [UAGACU]

>  <FACS-Seq fitted mean (log10)>
0.606

$$$$

Field: FACS-Seq fitted mean (log10). Fill in for each record below.
1. GCUGUCACCGGUGCUUGGUACGUUAUAUUCAGCCGGUCUGAUGAGUCUAAAGACAGACGAAACAGC [AAAGAC]
2. GCUGUCACCGGUGCUUGGUACGUUAUAUUCAGCCGGUCUGAUGAGUCUUACCGCAGACGAAACAGC [UACCGC]
3. GCUGUCACCGGUGCUUGGUACGUUAUAUUCAGCCGGUCUGAUGAGUCUAUUGUGAGACGAAACAGC [AUUGUG]

output:
[0.42, 0.235, 0.281]

Field: FACS-Seq fitted mean (log10). Fill in for each record below.
1. GCUGUCACCGGUGCUUGGUACGUUAUAUUCAGCCGGUCUGAUGAGUCUCGUGACAGACGAAACAGC [CGUGAC]
2. GCUGUCACCGGUGCUUGGUACGUUAUAUUCAGCCGGUCUGAUGAGUCUGAAUGAAGACGAAACAGC [GAAUGA]
3. GCUGUCACCGGUGCUUGGUACGUUAUAUUCAGCCGGUCUGAUGAGUCUUCCGUGAGACGAAACAGC [UCCGUG]
4. GCUGUCACCGGUGCUUGGUACGUUAUAUUCAGCCGGUCUGAUGAGUCUAAACCAAGACGAAACAGC [AAACCA]
5. GCUGUCACCGGUGCUUGGUACGUUAUAUUCAGCCGGUCUGAUGAGUCUAUGAAAAGACGAAACAGC [AUGAAA]
6. GCUGUCACCGGUGCUUGGUACGUUAUAUUCAGCCGGUCUGAUGAGUCUUUCAAUAGACGAAACAGC [UUCAAU]
7. GCUGUCACCGGUGCUUGGUACGUUAUAUUCAGCCGGUCUGAUGAGUCUAUGGCGAGACGAAACAGC [AUGGCG]
8. GCUGUCACCGGUGCUUGGUACGUUAUAUUCAGCCGGUCUGAUGAGUCUAAGCAAAGACGAAACAGC [AAGCAA]

output:
0.241
0.25
0.0926
0.226
0.535
0.465
0.284
0.352

Field: FACS-Seq fitted mean (log10). Fill in for each record below.
1. GCUGUCACCGGUGCUUGGUACGUUAUAUUCAGCCGGUCUGAUGAGUCUUUGAAGAGACGAAACAGC [UUGAAG]
2. GCUGUCACCGGUGCUUGGUACGUUAUAUUCAGCCGGUCUGAUGAGUCUUAACGAAGACGAAACAGC [UAACGA]
3. GCUGUCACCGGUGCUUGGUACGUUAUAUUCAGCCGGUCUGAUGAGUCUCUCAAUAGACGAAACAGC [CUCAAU]

output:
1: 0.386; 2: 0.256; 3: 0.0874
